# System: THP-1
# protocolSummary: Inhibition of LPS-induced TNFalpha production in human THP-1 cells incubated for 2 hrs followed by LPS stimulation and measured after 12 hrs by ELISA
# Type: functional, cell-based
quantityKind: IC50 (nM)

What does the record list as IC50 for CCCCC/C=C\C/C=C\CCCCCCCC(=O)NC(C)c1ccc(Br)cc1 (stereo unspecified) ? 740

Now consider CCCCC/C=C\C/C=C\CCCCCCCC(=O)NCCCc1ccccc1 and answer again. 8300

Now consider CCCCC/C=C\C/C=C\CCCCCCCC(=O)NC(C)c1ccc(O)cc1 (stereo unspecified) and answer again. 1840

Now consider CCCCC/C=C\C/C=C\CCCCCCCC(=O)NC(CO)c1ccccc1 (stereo unspecified) and answer again. 56800

Now consider CCCCC/C=C\C/C=C\CCCCCCCC(=O)NC(C)c1cc(C)cc(C)c1 (stereo unspecified) and answer again. 80

Now consider CCCCC/C=C\C/C=C\CCCCCCCC(=O)Nc1ccccc1 and answer again. 21000

[a] CCCCC/C=C\C/C=C\CCCCCCCC(=O)OC(C)c1cc(C)cc(C)c1 (stereo unspecified)
[b] CCCCC/C=C\C/C=C\CCCCCCCC(=O)NC(C)C(C)(C)C (stereo unspecified)
[c] CCCCCCCC/C=C\CCCCCCCC(=O)O
Order these by IC50, descending, and give the full ranking. Order the labels as requested and give them as your answer. c, b, a

[1] CCCCC/C=C\C/C=C\CCCCCCCC(=O)NNc1ccccc1
[2] CCCCC/C=C\C/C=C\CCCCCCCC(=O)NC(C)c1ccc(F)cc1 (stereo unspecified)
Which has the higher IC50, 1 or 2 ? Answer format: the label of the selected item. 1
(1: 8900 nM, 2: 780 nM)

Sourced from ChEMBL document CHEMBL4699435
